test: Plasma pharmacokinetics following a single intravenous and subcutaneous injection of a combination of formoterol and budesonide; details: male, Gottingen, minipig, in vivo, iv, Plasma concentration of formoterol, IV 0.4 μg/kg, combination, male 1-0771, 0.0333 hr
attribute.measured: concentration at 0.0333 hr (ng/mL)
# output: bare number, implied unit ng/mL

(Q) I'd like to know its concentration at 0.0333 hr. The molecule in question is COc1ccc(CC(C)NCC(O)c2ccc(O)c(NC=O)c2)cc1 (stereo not shown)
(A) 0.41

* * *

test: Plasma pharmacokinetics following a single intravenous and subcutaneous injection of a combination of formoterol and budesonide; conditions: female, Gottingen, minipig, in vivo, Plasma concentration of formoterol, SC5 0.4 μg/kg, combination, female 2-0623, 8.00 hr
attribute.measured: concentration at 8 hr (ng/mL)
# output: bare number, implied unit ng/mL

(Q) I'd like to know its concentration at 8 hr. The compound in question is COc1ccc(CC(C)NCC(O)c2ccc(O)c(NC=O)c2)cc1 (stereo not shown) [Formoterol, formoterol]
(A) 0.0103

* * *

assay: in vivo; conditions: male, Gottingen, minipig, in vivo, iv, 4 ug/kg
attribute.measured: clearance (mL/min/kg)
# output: bare number, implied unit mL/min/kg

(Q) I'd like to know its clearance. The compound in question is OCc1cc(C(O)CNCCCCCCOCCCCc2ccccc2)ccc1O (racemic) [Salmeterol]
(A) 38

* * *

assay: Plasma pharmacokinetics following a single intravenous and subcutaneous injection of a combination of formoterol and budesonide; details: female, Gottingen, minipig, in vivo, Plasma concentration of formoterol, SC1 0.4 μg/kg, combination, female 2-0623, 0.750 hr
attribute.measured: concentration at 0.75 hr (ng/mL)
# output: bare number, implied unit ng/mL

(Q) I'd like to know its concentration at 0.75 hr. The compound in question is COc1ccc(CC(C)NCC(O)c2ccc(O)c(NC=O)c2)cc1 (stereo not shown)
(A) 0.0789

* * *

experiment: Plasma pharmacokinetics following a single intravenous and subcutaneous injection of a combination of formoterol and budesonide; conditions: male, Gottingen, minipig, in vivo, iv, 0.4 ug/kg, Tmax, formoterol 0.4 μg/kg IV in combination with budesonide, male 1-0771
attribute.measured: Tmax (min)
# output: bare number, implied unit min

(Q) I'd like to know its Tmax. The compound in question is COc1ccc(CC(C)NCC(O)c2ccc(O)c(NC=O)c2)cc1 (stereo not shown) [Formoterol, formoterol]
(A) 2

* * *

test: in vivo; conditions: female, Gottingen, minipig, in vivo, sc, 4 ug/kg, Cmax
attribute.measured: Cmax (ng/mL)
# output: bare number, implied unit ng/mL

(Q) I'd like to know its Cmax. The compound in question is OCc1cc(C(O)CNCCCCCCOCCCCc2ccccc2)ccc1O (racemic)
(A) 0.403

* * *

Test: Plasma pharmacokinetics following a single intravenous and subcutaneous injection of a combination of formoterol and budesonide
Conditions: female, Gottingen, minipig, in vivo, iv, Plasma concentration of formoterol, IV 0.4 μg/kg, combination, female 2-0623, 8.00 hr
Experimental: Formoterol fumarate dehydrate and budesonide were formulated in 2% PEG-400 in saline. 1 male and 1 female non-naive Gottingen minipigs (8 to 12 kg upon receipt per protocol) were utilized. The animals were housed individually. […] Plasma samples were analyzed for formoterol and budesonide using a qualified liquid chromatography/mass spectrometry/mass mass spectrometry (LC/MS/MS) method. The lower limit of quantitation (LLOQ) was 1.00 pg/mL for formoterol and 25.0 pg/mL for budesonide. […]
attribute.measured: concentration at 8 hr
Record the result as a number with its unit.

(Q) I'd like to know its concentration at 8 hr. The compound in question is COc1ccc(CC(C)NCC(O)c2ccc(O)c(NC=O)c2)cc1 (stereo not shown)
(A) 7.26 pg/mL
